Documented pKi across a set of compounds
# TGT: human A3 receptors (Homo sapiens, UniProt P0DMS8)
# Construct: expressed in transfected cells; host or cells: HEK-293
# Sequence (P0DMS8 whole entry): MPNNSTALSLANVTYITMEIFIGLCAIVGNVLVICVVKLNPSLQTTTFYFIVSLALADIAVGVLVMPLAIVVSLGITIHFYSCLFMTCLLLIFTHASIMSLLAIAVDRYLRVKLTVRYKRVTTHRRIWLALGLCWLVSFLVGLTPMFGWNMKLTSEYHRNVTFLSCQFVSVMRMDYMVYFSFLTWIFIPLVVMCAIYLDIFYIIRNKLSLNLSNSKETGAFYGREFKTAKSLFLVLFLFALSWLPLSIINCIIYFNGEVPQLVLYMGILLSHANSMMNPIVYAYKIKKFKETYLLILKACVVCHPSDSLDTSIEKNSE
# TEST_METHOD_NOTES: Displacement of [125I]AB-MECA binding at human A3 receptors expressed in HEK cells
# ASSAY_CONTEXT: read-out: Ki hA3
pKi: −log10 of the molar value.

{"COMPOUND": "CCCn1c(=O)c2[nH]c(-c3ccc(OCC(=O)NN4C(=O)C=C(C)C4=O)cc3)nc2n(CCC)c1=O", "TGT": "human A3 receptors (Homo sapiens, UniProt P0DMS8)", "pKi": 6.26}
{"COMPOUND": "CCCn1c(=O)c2[nH]c(-c3ccc(OCC(=O)NNC(=O)[C@H](CC(C)C)NC(=O)OC(C)(C)C)cc3)nc2n(CCC)c1=O", "TGT": "human A3 receptors (Homo sapiens, UniProt P0DMS8)", "pKi": 6.71}
{"COMPOUND": "CCCn1c(=O)c2[nH]c(-c3ccc(OCC(=O)NNC(=O)C4=C(C(=O)O)CCC4)cc3)nc2n(CCC)c1=O [Compound 19a]", "TGT": "human A3 receptors (Homo sapiens, UniProt P0DMS8)", "pKi": 5.93}
{"COMPOUND": "CCCn1c(=O)c2[nH]c(-c3ccc(OCC(=O)NN4C(=O)C(c5ccccc5)=C(c5ccccc5)C4=O)cc3)nc2n(CCC)c1=O", "TGT": "human A3 receptors (Homo sapiens, UniProt P0DMS8)", "pKi": 5.46}
{"COMPOUND": "CCCn1c(=O)c2[nH]c(-c3ccc(OCC(=O)NN4C(=O)C[C@H](NC(=O)C(F)(F)F)C4=O)cc3)nc2n(CCC)c1=O", "TGT": "human A3 receptors (Homo sapiens, UniProt P0DMS8)", "pKi": 5.81}
{"COMPOUND": "CCCn1c(=O)c2[nH]c(-c3ccc(OCC(=O)NN4C(=O)CCC(c5ccccc5)C4=O)cc3)nc2n(CCC)c1=O (stereo not drawn)", "TGT": "human A3 receptors (Homo sapiens, UniProt P0DMS8)", "pKi": 6.82}
